Just for reference, the supplement of paper PMC8975748 is where these values come from.

For each entry below, report its z-score of subpopulation abundance value.
- System: Saccharomyces cerevisiae BY4741 SeMeCo community
- procedure-summary: z-score of subpopulation abundance vs DMSO median, subpopulation auxotrophic for HLU; higher = larger share of this subpopulation than in DMSO controls
- run-parameters: 10 µM; 24 h; SM minimal medium; subpopulation (auxotrophy): HLU
Structures can show the parent of a compound that is named as a salt.
Give bare numbers.

These solved cases illustrate the format of a correct answer.
CO/N=C(\C(=O)N[C@@H]1C(=O)N2C(C(=O)O)=C(CSc3nc(C)c(CC(=O)O)s3)CS[C@H]12)c1csc(N)n1 [Cefodizime Sodium] :: -1.16
C[C@](N)(Cc1ccc(O)c(O)c1)C(=O)O :: -0.36
O=c1n(CCCN2CCN(c3cccc(Cl)c3)CC2)nc2ccccn12 [Trazodone HCl] :: -0.83
CN[C@@H]1[C@@H](O)[C@@H](O[C@@H]2[C@@H](O)[C@H](O[C@H]3O[C@H](CN)[C@@H](O)[C@H](O)[C@H]3O)[C@@H](N)C[C@H]2NC(=O)[C@@H](O)CN)OC[C@]1(C)O [Isepamicin Sulphate] :: -0.42

// input: 2 compounds below; output: z-score of subpopulation abundance for each
1. OCCN1CCN(CC/C=C2/c3ccccc3Sc3ccc(C(F)(F)F)cc32)CC1 [Flupenthixol dihydrochloride]
2. COc1ccc(CC2c3cc(OC)c(OC)cc3CC[N+]2(C)CCC(=O)OCCCCCOC(=O)CC[N+]2(C)CCc3cc(OC)c(OC)cc3C2Cc2ccc(OC)c(OC)c2)cc1OC (stereo not drawn) [Atracurium Besylate]

Result:
1: 0.47; 2: 0.55

// input: 2 compounds below; output: z-score of subpopulation abundance for each
1. NC1CCN(c2nc3c(cc2F)c(=O)c(C(=O)O)cn3-c2ccc(F)cc2F)C1 (stereo not drawn) [Tosufloxacin p-Toluenesulfonate Hydrate]
2. O=C(O[C@H]1CN2CCC1CC2)N1CCc2ccccc2[C@@H]1c1ccccc1 [Solifenacin succinate]

Result:
1: 0.67; 2: 0.46

====

- System: Saccharomyces cerevisiae BY4741 SeMeCo community
- procedure-summary: z-score of subpopulation abundance vs DMSO median, subpopulation auxotrophic for LUM; higher = larger share of this subpopulation than in DMSO controls
- run-parameters: 10 µM; 24 h; SM minimal medium; subpopulation (auxotrophy): LUM
Where a name gives a salt, the structure may show the parent alone.
z-score of subpopulation abundance of -0.2 or higher: 1.0. Under -0.2: 0.0.

Worked set:
CCCCCCCCCC(=O)NC1C(Oc2c3cc4cc2Oc2ccc(cc2Cl)C(OC2OC(CO)C(O)C(O)C2NC(C)=O)C2NC(=O)C(NC(=O)C4NC(=O)C4NC(=O)C(Cc5ccc(c(Cl)c5)O3)NC(=O)C(N)c3ccc(O)c(c3)Oc3cc(O)cc4c3)c3ccc(O)c(c3)-c3c(OC4OC(CO)C(O)C(O)C4O)cc(O)cc3C(C(=O)O)NC2=O)OC(CO)C(O)C1O (stereo unspecified) :: 1.0
Clc1ccc(C(Cn2ccnc2)OCc2ccc(Sc3ccccc3)cc2)c(Cl)c1 (stereo unspecified) [Fenticonazole Nitrate] :: 0.0
C[N+]1(C)CCC(OC(=O)C(O)(c2ccccc2)C2CCCC2)C1 (stereo unspecified) [Glycopyrrolate] :: 1.0
Nc1cc(C(Cl)=C(Cl)Cl)c(S(N)(=O)=O)cc1S(N)(=O)=O :: 1.0

Request: Confirm if z-score of subpopulation abundance reported for the molecule CCOc1ccc(NC(C)=O)cc1 is -0.2 or above.
Result: 1.0

Request: Confirm if z-score of subpopulation abundance reported for the molecule CCCN1C[C@H](C)[C@@H](O)[C@](C)(O)[C@@H](CC)OC(=O)[C@H](C)[C@@H](O[C@H]2C[C@@](C)(OC)[C@@H](O)[C@H](C)O2)[C@H](C)[C@@H](O[C@@H]2O[C@H](C)C[C@H](N(C)C)[C@H]2O)[C@](C)(O)C[C@H]1C is -0.2 or above.
Result: 1.0

Request: Confirm if z-score of subpopulation abundance reported for the molecule O=C1OC(CN2CCOCC2)CN1/N=C/c1ccc([N+](=O)[O-])o1 (stereo unspecified) [Furaltadone HCl] is -0.2 or above.
Result: 0.0

Request: Confirm if z-score of subpopulation abundance reported for the molecule COc1ccc2cc([C@H](C)C(=O)O)ccc2c1 is -0.2 or above.
Result: 0.0

Request: Confirm if z-score of subpopulation abundance reported for the molecule CN1[C@@H](CC(=O)c2ccccc2)CCC[C@H]1C[C@H](O)c1ccccc1 [Lobeline hydrochloride] is -0.2 or above.
Result: 0.0

Request: Confirm if z-score of subpopulation abundance reported for the molecule COC(=O)C1=C(C)NC(C)=C(C(=O)OCC(C)C)C1c1ccccc1[N+](=O)[O-] (stereo unspecified) is -0.2 or above.
Result: 1.0

Request: Confirm if z-score of subpopulation abundance reported for the molecule O=C1N=C(O)NC1(c1ccccc1)c1ccccc1 [Phenytoin Sodium] is -0.2 or above.
Result: 0.0

Request: Confirm if z-score of subpopulation abundance reported for the molecule CC(Cc1ccc(O)c(O)c1)C(C)Cc1ccc(O)c(O)c1 (stereo unspecified) [Nordihydroguaiaretic acid (NDGA)] is -0.2 or above.
Result: 1.0

Request: Confirm if z-score of subpopulation abundance reported for the molecule N[C@@H](C(=O)N[C@@H]1C(=O)N2C(C(=O)O)=C(Cl)CS[C@H]12)c1ccccc1 is -0.2 or above.
Result: 1.0

Request: Confirm if z-score of subpopulation abundance reported for the molecule CCC[C@@H]1C[C@@H](C(=O)N[C@@H]([C@H]2O[C@H](SC)[C@H](O)[C@@H](O)[C@H]2O)[C@@H](C)O)N(C)C1 [Lincomycin HCl] is -0.2 or above.
Result: 0.0

Request: Confirm if z-score of subpopulation abundance reported for the molecule CC#C[C@]1(O)CC[C@H]2[C@@H]3CCC4=CC(=O)CCC4=C3[C@@H](c3ccc(N(C)C)cc3)C[C@@]21C is -0.2 or above.
Result: 1.0
